Measured IC50 (CtermHisTag-mEGFR Wild type (Homo sapiens))

Ask | Can you share its IC50? I mean this compound: C#Cc1cc(N2C(=O)NCC23CCCC3)nc2nc(Nc3ccc(S(=O)(=O)N(C)C)cc3)ncc12 [Example 97]
Reply | > 10 µM

Ask | Can you share its IC50? I mean this compound: C#Cc1cc(NC(=O)NCc2ccccn2)nc2nc(Nc3ccc(N4CCN(C)CC4)cc3)ncc12 [Example 49]
Reply | < 1 µM

Ask | Can you share its IC50? I mean this compound: C#Cc1c(C)c(OCC2CCCC2)nc2nc(Nc3ccc(N4CCN(C)CC4)cc3)ncc12 [Example 23]
Reply | > 10 µM

Ask | Can you share its IC50? I mean this compound: C#Cc1cc(-n2cc(C)cn2)nc2nc(Nc3ccc(N(C)CCN(C)C)cc3)ncc12 [Example 34]
Reply | 1 to 10 µM

====

# reported IC50; entries follow
Biological target: Phospho-EGFR (Tyr1068) in H1975 C797S cells (Homo sapiens, UniProt P00533, C797S/L858R/T790M)
Construct: endogenous in cells
Sequence (P00533 25-1210 T790M/C797S/L858R): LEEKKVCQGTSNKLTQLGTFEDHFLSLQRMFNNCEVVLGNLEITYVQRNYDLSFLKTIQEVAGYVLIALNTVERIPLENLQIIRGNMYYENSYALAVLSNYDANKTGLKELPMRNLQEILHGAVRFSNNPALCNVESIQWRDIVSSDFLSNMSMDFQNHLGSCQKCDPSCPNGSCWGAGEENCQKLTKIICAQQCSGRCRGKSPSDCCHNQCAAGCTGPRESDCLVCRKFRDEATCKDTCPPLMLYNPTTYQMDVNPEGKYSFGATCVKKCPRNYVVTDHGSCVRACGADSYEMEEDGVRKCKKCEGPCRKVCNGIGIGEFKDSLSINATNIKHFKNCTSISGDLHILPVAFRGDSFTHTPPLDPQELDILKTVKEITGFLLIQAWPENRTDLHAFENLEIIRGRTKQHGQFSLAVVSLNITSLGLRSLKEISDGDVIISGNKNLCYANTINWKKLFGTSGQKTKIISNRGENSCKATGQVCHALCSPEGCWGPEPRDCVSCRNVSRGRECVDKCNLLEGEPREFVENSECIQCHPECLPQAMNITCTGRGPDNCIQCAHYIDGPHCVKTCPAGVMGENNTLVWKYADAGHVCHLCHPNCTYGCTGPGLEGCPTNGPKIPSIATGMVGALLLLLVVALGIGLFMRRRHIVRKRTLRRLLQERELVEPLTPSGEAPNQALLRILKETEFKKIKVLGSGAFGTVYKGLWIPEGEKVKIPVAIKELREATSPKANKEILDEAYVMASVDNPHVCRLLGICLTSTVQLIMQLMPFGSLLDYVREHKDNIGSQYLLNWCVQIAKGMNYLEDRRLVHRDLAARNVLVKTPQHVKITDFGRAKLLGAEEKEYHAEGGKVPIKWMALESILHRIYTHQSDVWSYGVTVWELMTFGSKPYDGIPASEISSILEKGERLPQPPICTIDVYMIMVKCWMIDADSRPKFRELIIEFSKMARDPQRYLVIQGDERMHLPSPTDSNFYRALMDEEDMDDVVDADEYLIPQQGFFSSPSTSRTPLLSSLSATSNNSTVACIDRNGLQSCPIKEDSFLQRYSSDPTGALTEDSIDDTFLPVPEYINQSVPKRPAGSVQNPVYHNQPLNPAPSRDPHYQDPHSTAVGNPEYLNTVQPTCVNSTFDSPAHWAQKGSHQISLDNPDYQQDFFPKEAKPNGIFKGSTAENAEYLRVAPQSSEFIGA
Test: HTRF pEGFR/total EGFR assay in H1975 C797S cells
Conditions: H1975 C797S cells (CRISPR), compound 3 hours, ratio pEGFR/total EGFR

Some solved cases for reference:
INSERT INTO assay_data (compound, observed_value) VALUES
  ('C#Cc1cc(OC)nc2nc(Nc3cccc(CN(C)C4CCC4)c3)ncc12 [Example 4]', '> 3 µM'),
  ('C#Cc1cc(OC)nc2nc(Nc3cccc(CN(C)C)c3)ncc12 [Example 9]', '> 3 µM'),
  ('C#Cc1cc(NC(=O)NCC2COC2)nc2nc(Nc3ccc(N4CCN(C)CC4)cc3)ncc12 [Example 55]', '< 0.5 µM'),
  ('C#Cc1cc(-n2cc(C)cn2)nc2nc(Nc3ccc(N(C)CCN(C)C)cc3)ncc12 [Example 34]', '1 to 3 µM'),
  ('C#Cc1cc(NC(=O)NCC2CCCO2)nc2nc(Nc3ccc(N4CCN(C)CC4)cc3)ncc12 (centres unmarked) [Example 50]', '0.5 to 1 µM');

Ask | Can you share its IC50? I mean this compound: C#Cc1cc(NC(=O)NC2CCCC2)nc2nc(Nc3cccc(N(C)[C@H]4CC[C@@H](CS(C)(=O)=O)CC4)c3)ncc12 [Example 120]
Reply | < 0.5 µM

Ask | Can you share its IC50? I mean this compound: C#Cc1cc(OC)nc2nc(Nc3ccc(N4CCN(C)CC4)c(NC4CCC4)c3)ncc12 [Example 8]
Reply | > 3 µM

Ask | Can you share its IC50? I mean this compound: C#Cc1cc(OC)nc2nc(Nc3cccc(CN(C)C(C)=O)c3)ncc12 [Example 7]
Reply | > 3 µM

====

Target: Phospho-EGFR (Tyr1068) in A431 cells (Homo sapiens, UniProt P00533)
Construct: endogenous in cells
Sequence (P00533 25-1210): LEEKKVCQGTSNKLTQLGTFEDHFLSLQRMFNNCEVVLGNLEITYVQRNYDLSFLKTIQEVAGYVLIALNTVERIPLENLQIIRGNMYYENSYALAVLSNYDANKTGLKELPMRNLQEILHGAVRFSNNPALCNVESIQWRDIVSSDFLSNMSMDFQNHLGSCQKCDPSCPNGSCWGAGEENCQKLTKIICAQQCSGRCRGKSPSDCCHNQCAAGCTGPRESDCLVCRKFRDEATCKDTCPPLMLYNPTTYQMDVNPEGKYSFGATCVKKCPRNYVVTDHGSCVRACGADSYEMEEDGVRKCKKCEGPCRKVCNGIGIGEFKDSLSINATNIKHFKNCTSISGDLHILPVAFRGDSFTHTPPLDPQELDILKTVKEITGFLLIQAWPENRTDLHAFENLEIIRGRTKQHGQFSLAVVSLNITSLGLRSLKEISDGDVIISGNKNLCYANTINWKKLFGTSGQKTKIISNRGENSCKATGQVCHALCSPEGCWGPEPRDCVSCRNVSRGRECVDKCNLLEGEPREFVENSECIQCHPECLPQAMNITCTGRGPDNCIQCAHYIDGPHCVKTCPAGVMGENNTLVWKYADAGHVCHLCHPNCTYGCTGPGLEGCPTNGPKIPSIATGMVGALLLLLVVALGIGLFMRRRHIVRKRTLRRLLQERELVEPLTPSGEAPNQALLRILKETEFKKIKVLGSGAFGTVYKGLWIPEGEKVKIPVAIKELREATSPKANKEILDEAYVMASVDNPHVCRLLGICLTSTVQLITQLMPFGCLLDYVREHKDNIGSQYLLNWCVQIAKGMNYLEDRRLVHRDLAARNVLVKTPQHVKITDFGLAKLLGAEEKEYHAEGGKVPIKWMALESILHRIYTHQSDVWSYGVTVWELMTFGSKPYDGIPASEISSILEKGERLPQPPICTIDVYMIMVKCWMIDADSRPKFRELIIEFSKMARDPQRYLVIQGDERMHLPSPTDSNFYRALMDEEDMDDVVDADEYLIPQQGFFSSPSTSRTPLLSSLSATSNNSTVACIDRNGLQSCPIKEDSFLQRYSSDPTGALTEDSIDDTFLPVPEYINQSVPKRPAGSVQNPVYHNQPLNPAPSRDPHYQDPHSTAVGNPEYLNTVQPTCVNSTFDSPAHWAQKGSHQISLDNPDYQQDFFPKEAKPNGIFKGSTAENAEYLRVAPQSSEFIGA
Experiment: HTRF pEGFR/total EGFR assay in A431 cells (EGF stimulated)
Conditions: compound 2.5 hours then 100 ng/ml EGF 30 mins, ratio pEGFR/total EGFR
# reported IC50; entries follow

INSERT INTO measurements (compound, readout_label, observed_value) VALUES
  ('C#Cc1cc(OCc2cscn2)nc2nc(Nc3ccc(N4CCN(C)CC4)cc3)ncc12', 'IC50', '> 3 µM');

Ask | Can you share its IC50? I mean this compound: `C#Cc1cc(OC)nc2nc(Nc3ccc(N4CCN(C)CC4)cc3)ncc12`
Reply | > 3 µM

Ask | Can you share its IC50? I mean this compound: `C#Cc1cc(N2C(=O)N(C)CC23CCCC3)nc2nc(Nc3ccc(S(C)(=O)=O)cc3)ncc12`
Reply | 1 to 3 µM

Ask | Can you share its IC50? I mean this compound: `C#Cc1cc(NC(=O)NC2CCCC2)nc2nc(Nc3ccc(N(C)C(=O)CN4CCC4)cc3)ncc12`
Reply | > 3 µM

====

Target: Phospho-EGFR (Tyr1068) in A431 cells (Homo sapiens)
Construct: endogenous in cells
Test: HTRF pEGFR/total EGFR assay in A431 cells (EGF stimulated)
Settings: compound 2.5 hours then 100 ng/ml EGF 30 mins, ratio pEGFR/total EGFR
Experimental: Cells were plated at 20,000 cells per well in 96 well plates and placed at 37° C. 5% CO2. Once adhered (after 24h) cells were treated with compounds dissolved in DMSO at a final concentration of 0.1% DMSO in media. […] Fluorescence emission was read at two different wavelengths (665 nm and 620 nm) on a PheraStar. Results were calculated as ratio of pEGFR/total EGFR and then percentage of OuM control.
READOUT_LABEL: IC50

Some solved cases for reference:
INSERT INTO measurements (compound, tgt, observed_value) VALUES
  ('C#Cc1cc(N2C(=O)OCC23CCCC3)nc2nc(Nc3ccc(N4CCN(C)CC4)cc3)ncc12', 'Phospho-EGFR (Tyr1068) in A431 cells (Homo sapiens)', '1 to 3 µM'),
  ('C#Cc1cc(N2C(=O)NCC23CCCC3)nc2nc(Nc3ccc(OCCN(C)C)cc3)ncc12', 'Phospho-EGFR (Tyr1068) in A431 cells (Homo sapiens)', '0.5 to 1 µM'),
  ('C#Cc1cc(OCCCc2ccccc2)nc2nc(Nc3ccc(N4CCN(C)CC4)cc3)ncc12', 'Phospho-EGFR (Tyr1068) in A431 cells (Homo sapiens)', '> 3 µM'),
  ('C#Cc1cc(N2CC(C(C)C)OC2=O)nc2nc(Nc3ccc(N4CCN(C)CC4)cc3)ncc12 (stereo not shown)', 'Phospho-EGFR (Tyr1068) in A431 cells (Homo sapiens)', '> 3 µM'),
  ('C#Cc1cc(NC(=O)OCc2ccccc2)nc2nc(Nc3ccc(N4CCN(C)CC4)cc3)ncc12', 'Phospho-EGFR (Tyr1068) in A431 cells (Homo sapiens)', '> 3 µM');

Ask | Short answer please: IC50, Phospho-EGFR (Tyr1068) in A431 cells (Homo sapiens), entry `C#Cc1cc(NC(=O)NCC2CCCC2)nc2nc(Nc3ccc(N4CCN(C)CC4)cc3)ncc12`
Reply | > 3 µM

Ask | Short answer please: IC50, Phospho-EGFR (Tyr1068) in A431 cells (Homo sapiens), entry `C#Cc1cc(NC(=O)NC2CC2)nc2nc(Nc3ccc(N4CCN(C)CC4)cc3)ncc12`
Reply | 1 to 3 µM

Ask | Short answer please: IC50, Phospho-EGFR (Tyr1068) in A431 cells (Homo sapiens), entry C#Cc1cc(N2C(=O)OCC2CC2CCCC2)nc2nc(Nc3ccc(N4CCN(C)CC4)cc3)ncc12 (stereo not shown)
Reply | > 3 µM

Ask | Short answer please: IC50, Phospho-EGFR (Tyr1068) in A431 cells (Homo sapiens), entry `C#Cc1cc(NC(=O)NC2(C(F)(F)F)CCCC2)nc2nc(Nc3ccc(N4CCN(C)CC4)cc3)ncc12`
Reply | < 0.5 µM

Ask | Short answer please: IC50, Phospho-EGFR (Tyr1068) in A431 cells (Homo sapiens), entry `C#Cc1cc(N2C(=O)NC[C@H]2COC)nc2nc(Nc3ccc(N4CCN(C)CC4)cc3)ncc12`
Reply | > 3 µM

====

# reported pIC50; entries follow
Biological target: CtermHisTag-mEGFR Triple Mutant - C797S, L858R, T790M (Homo sapiens, UniProt P00533, C797S/L858R/T790M)
Sequence (P00533 25-1210 T790M/C797S/L858R): as the sequence (P00533 25-1210 T790M/C797S/L858R) above
Assay: TR-FRET probe displacement assay, EGFR triple mutant
Format: binding
Details: T790M 1.25 nM, probe 100 nM, 30 mins room temperature
Description: Compounds (dissolved to 100 mM in DMSO) were dispensed into black low volume 384 well assay plates (Corning) over a final concentration range of 100000, 30000, 10000, 3000, 1000, 300, 100, 30, 10, and 3 nM using an Echo 550 (Labcyte). Positive control compound and DMSO as a negative control were dispensed into the first and last well, respectively. […] Plates were read using a PheraStar FS (BMG Labtech) at Ex337 nm Ex490/520 nm. The data were analysed using Graphpad Prism/Dotmatics Studies Software. […]
pIC50: −log10 of the molar value.

INSERT INTO results (molecule, observed_value) VALUES
  ('C#Cc1cc(NC(=O)Cc2ccccc2)nc2nc(Nc3ccc(N4CCN(C)CC4)cc3)ncc12', '> 7.70');

Continue with the next molecule.
Ask | Can you share its pIC50? I mean this molecule: `C#Cc1cc(OCCc2ccccc2)nc2nc(Nc3ccc(N4CCN(C)CC4)cc3)ncc12`
Reply | 6.00 to 7.00

====

Biological target: Phospho-EGFR (Tyr1068) in H1975 cells (Homo sapiens, UniProt P00533, L858R/T790M)
Sequence (P00533 25-1210 T790M/L858R): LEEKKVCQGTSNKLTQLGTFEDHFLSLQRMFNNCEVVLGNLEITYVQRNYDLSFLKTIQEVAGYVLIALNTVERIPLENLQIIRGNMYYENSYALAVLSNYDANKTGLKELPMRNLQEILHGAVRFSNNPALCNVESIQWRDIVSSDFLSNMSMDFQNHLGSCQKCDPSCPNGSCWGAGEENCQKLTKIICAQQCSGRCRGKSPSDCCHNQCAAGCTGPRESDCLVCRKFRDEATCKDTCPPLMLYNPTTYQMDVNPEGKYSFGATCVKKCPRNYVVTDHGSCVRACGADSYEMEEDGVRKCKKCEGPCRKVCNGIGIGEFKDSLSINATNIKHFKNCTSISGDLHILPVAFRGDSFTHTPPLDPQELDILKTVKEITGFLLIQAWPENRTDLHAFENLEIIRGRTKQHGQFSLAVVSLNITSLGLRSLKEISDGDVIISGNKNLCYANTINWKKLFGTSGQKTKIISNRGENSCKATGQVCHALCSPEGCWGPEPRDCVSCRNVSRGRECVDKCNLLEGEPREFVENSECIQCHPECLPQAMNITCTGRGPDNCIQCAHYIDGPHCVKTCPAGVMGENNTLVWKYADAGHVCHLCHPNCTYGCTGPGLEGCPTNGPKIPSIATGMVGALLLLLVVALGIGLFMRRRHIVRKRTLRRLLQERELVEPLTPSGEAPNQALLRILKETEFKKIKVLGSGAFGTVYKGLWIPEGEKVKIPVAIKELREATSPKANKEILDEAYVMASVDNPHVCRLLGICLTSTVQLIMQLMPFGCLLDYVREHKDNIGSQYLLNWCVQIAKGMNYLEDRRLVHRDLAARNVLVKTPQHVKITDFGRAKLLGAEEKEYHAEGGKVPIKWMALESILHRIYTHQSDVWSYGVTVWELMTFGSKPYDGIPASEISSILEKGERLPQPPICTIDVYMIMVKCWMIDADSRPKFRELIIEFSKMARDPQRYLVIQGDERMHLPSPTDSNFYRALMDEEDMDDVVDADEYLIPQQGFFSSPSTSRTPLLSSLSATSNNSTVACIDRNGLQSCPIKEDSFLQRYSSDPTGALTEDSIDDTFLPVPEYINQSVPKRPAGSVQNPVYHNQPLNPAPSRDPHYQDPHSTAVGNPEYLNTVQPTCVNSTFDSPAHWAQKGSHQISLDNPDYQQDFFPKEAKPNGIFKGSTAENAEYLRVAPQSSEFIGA
Test: HTRF pEGFR/total EGFR assay in H1975 cells
Details: compound 3 hours, ratio pEGFR/total EGFR
# reported IC50; entries follow

Some solved cases for reference:
INSERT INTO results (compound, observed_value) VALUES
  ('C#Cc1cc(N(C)C(=O)NC2CCCC2)nc2nc(Nc3ccc(N4CCN(C)CC4)cc3)ncc12 [Example 73]', '< 500 nM'),
  ('C#Cc1cc(N2C(=O)NC[C@H]2C(C)C)nc2nc(Nc3ccc(N4CCN(C)CC4)cc3)ncc12 [Example 100]', '500 to 1000 nM'),
  ('C#Cc1cc(NC(=O)NC2CCCC2)nc2nc(Nc3cccc(N(C)[C@H]4CC[C@@H](CS(C)(=O)=O)CC4)c3)ncc12 [Example 120]', '< 500 nM'),
  ('C#Cc1cc(OCCCc2ccccc2)nc2nc(Nc3ccc(N4CCN(C)CC4)cc3)ncc12 [Example 22]', '> 3000 nM'),
  ('C#Cc1cc(N2CC(C(C)C)OC2=O)nc2nc(Nc3ccc(N4CCN(C)CC4)cc3)ncc12 (stereo not shown) [Example 113]', '500 to 1000 nM');

Ask | Short answer please: IC50, Phospho-EGFR (Tyr1068) in H1975 cells (Homo sapiens, UniProt P00533, L858R/T790M), entry C#Cc1cc(NC(=O)NCc2cnco2)nc2nc(Nc3ccc(N4CCN(C)CC4)cc3)ncc12 [Example 45]
Reply | 500 to 1000 nM

Ask | Short answer please: IC50, Phospho-EGFR (Tyr1068) in H1975 cells (Homo sapiens, UniProt P00533, L858R/T790M), entry C#Cc1cc(N2C(=O)NCC23CCCC3)nc2nc(Nc3ccc(N(C)C(=O)CN(C)C)cc3)ncc12 [Example 94]
Reply | 1000 to 3000 nM
